Ref: the supplement of paper PMC3545927

- Tgt: furin, P09958
- Sequence (P09958 whole entry): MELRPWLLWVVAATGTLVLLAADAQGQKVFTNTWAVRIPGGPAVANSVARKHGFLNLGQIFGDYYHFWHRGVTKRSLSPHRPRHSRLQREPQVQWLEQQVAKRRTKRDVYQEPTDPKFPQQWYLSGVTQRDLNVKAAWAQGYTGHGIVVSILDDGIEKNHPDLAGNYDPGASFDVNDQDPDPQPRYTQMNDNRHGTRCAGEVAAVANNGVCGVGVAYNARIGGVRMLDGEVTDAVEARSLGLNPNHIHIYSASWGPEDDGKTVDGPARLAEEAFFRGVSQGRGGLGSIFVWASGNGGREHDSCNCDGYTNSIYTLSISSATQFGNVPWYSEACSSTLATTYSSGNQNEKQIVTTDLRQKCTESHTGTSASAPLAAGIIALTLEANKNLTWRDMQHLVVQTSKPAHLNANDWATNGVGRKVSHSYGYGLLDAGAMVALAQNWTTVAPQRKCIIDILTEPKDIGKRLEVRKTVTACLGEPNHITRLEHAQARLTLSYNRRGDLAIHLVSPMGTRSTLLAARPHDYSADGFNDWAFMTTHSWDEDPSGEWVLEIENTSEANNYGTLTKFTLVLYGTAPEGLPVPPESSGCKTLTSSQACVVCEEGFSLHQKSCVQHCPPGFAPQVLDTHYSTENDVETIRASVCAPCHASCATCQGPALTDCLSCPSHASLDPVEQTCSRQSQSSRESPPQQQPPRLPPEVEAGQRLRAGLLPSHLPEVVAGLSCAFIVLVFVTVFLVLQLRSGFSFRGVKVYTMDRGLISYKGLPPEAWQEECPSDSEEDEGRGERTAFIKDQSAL
- Test description: furin cleavage Z-score vs untreated control; higher = more cleavage, active = 3.5 or more, inactive = 1 or less, 8 variable residues between constant flanks;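 further: purified furin at 1:10 enzyme:substrate in 50 mM HEPES pH 7.5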
- Condition parameters: 7.5 min
The other results are listed elsewhere or left out. No count for the full screen is at hand.
Decide using furin cleavage Z-score: a value greater than or equal to 0.2 is condition met, a smaller one is condition not met.

{"Residue codes": "CAGSRRPRRDAGNASASA [FS-789]", "Class label": "condition met"}
{"Residue codes": "CAAERRHYRPAGNASASA [FS-969]", "Class label": "condition met"}
{"Residue codes": "CATVSGFVSLAGNASASA [HC358]", "Class label": "condition met"}
{"Residue codes": "CAAERRRRRGAGNASASA [FS-2]", "Class label": "condition met"}
{"Residue codes": "CAVVCCSMSRAGNASASA [HC2093]", "Class label": "condition met"}
{"Residue codes": "CAGRGRRRRLAGNASASA [FS-1204]", "Class label": "condition met"}
{"Residue codes": "CALLLTTTQWAGNASASA [HC493]", "Class label": "condition not met"}
{"Residue codes": "CADTDVFVLNAGNASASA [HC427]", "Class label": "condition not met"}
{"Residue codes": "CARAQRFWSWAGNASASA [FS-3242]", "Class label": "condition not met"}
{"Residue codes": "CAMRSRNGRWAGNASASA [FS-830]", "Class label": "condition met"}
{"Residue codes": "CAAESRACRGAGNASASA [FS-742]", "Class label": "condition not met"}
{"Residue codes": "CAEPARRRRLAGNASASA [FS-1193]", "Class label": "condition met"}
{"Residue codes": "CARSPRPRGDAGNASASA [FS-3090]", "Class label": "condition met"}
{"Residue codes": "CALDLPPIIQAGNASASA [HC1599]", "Class label": "condition met"}
{"Residue codes": "CAVVCYSMSYAGNASASA [HC97]", "Class label": "condition not met"}
